Measured pIC50 values are reported for all entries that follow.
Test system: L-6 rat mycoblast cells
experimentalDetails: cells
conditionSummary: read-out: CT IC50; Table 1; L-6 cells
pIC50: −log10 of the molar value.

compound	pIC50
CON=C(N)c1ccc(-c2ccc(-c3ccc(C(N)=NOC)nc3)cc2)cn1	< 3.80
CONC(=N)c1ccc(-c2ccc(-c3ccc(C(=N)NOC)cc3)nc2)cc1 [Compound 25c]	< 3.78
N=C(NO)c1ccc(-c2ccc(-c3ccc(C(=N)NO)cc3)nc2)cc1 [Compound 24c]	< 3.74
CCOC(=O)N=C(N)Nc1ccc(-c2ccc(-c3ccc(NC(N)=NC(=O)OCC)cc3)cc2)cc1 [Compound 50a]	< 3.74
NC(=NO)c1ccc(-c2ccc(-c3ccc(C(N)=NO)cc3)cc2)cc1	< 3.67

Where these numbers come from: patent US8188121B2
